# ASSAY SYSTEM: UniProt:P0A901
# Sequence (P0A901 19-177): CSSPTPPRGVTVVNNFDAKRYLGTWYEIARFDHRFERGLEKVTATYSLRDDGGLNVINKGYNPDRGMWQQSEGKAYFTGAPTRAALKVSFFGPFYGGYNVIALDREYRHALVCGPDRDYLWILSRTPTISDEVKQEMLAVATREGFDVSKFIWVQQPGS
# METHOD: tryptophan fluorescence quenching titration
# Format: binding
READOUT: Kd (pM)
Could you give me the number in pM? Just the number is fine.

Prompt line: Give UniProt:P0A901 Kd for CC1=C(CCC(=O)O)c2cc3[nH]c(cc4nc(cc5[nH]c(cc1n2)c(C)c5C(C)O)C(C)=C4C(C)O)c(C)c3CCC(=O)O (stereo not shown) [HP, hematoporphyrin]
Response line: 140
